target: Histone-lysine N-methyltransferase EZH2 [Y641F] (Homo sapiens, UniProt Q15910, Y641F); assay: In Vitro Methyltransferase Activity Assay
Sequence (Q15910 whole entry Y641F): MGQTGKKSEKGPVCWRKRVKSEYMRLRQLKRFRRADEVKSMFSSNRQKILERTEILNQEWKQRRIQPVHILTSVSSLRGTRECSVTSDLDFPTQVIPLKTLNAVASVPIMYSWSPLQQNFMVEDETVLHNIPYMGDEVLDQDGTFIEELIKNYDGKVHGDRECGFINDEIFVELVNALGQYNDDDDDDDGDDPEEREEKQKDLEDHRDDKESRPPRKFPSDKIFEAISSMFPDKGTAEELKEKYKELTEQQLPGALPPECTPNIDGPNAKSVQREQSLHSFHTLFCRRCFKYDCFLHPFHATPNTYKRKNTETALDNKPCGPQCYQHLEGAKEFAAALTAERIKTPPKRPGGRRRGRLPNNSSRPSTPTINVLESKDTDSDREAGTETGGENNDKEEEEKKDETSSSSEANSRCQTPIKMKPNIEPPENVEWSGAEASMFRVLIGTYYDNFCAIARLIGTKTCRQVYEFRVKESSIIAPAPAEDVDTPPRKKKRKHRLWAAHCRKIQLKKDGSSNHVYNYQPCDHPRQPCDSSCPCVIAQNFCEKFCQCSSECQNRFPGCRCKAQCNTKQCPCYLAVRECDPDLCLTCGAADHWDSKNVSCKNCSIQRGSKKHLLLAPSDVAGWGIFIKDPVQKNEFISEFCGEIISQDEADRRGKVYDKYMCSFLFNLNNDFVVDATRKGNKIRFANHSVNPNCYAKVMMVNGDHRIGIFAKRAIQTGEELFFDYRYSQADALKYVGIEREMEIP
measured.parameter: pIC50
Numbers only, as −log10 of the molar value.

Incoming: Return pIC50 for the following compound: CCN(c1c(C)c(C(=O)NCc2c(C)cc(C)[nH]c2=O)cc2c1cnn2C)C1CCOCC1 [US11104664, Compound P-7]
Outgoing: 7.92
